Tested on: OVCAR-5 ovarian
Experiment: NCI-60 one-dose screen, 48 h
Settings: 10 µM unless noted
About 83,000 compounds went through this panel and 20% of them were active in at least one assay; those are over-represented in the sample as a whole. Activity calls are given as the source filed them. How the source made its calls: active means growth percent below 10; inactive means the rest.
Hello, when you answer, please use one of the following outcomes: true (1) (active), false (0) (inactive)

Query: GET /call?item= O=C(Nc1ccc(Cl)c(C(F)(F)F)c1)N1CCN(c2cc(-c3cn(-c4ccccc4)nc3-c3cccc(O)c3)ccn2)CC1 returns the recorded outcome of this test.
Result: true (1)

Query: Next compound: Fc1cccc(CNc2nc(SCCN3CCOCC3)nc3c2cnn3CC(Cl)c2ccc(Br)cc2)c1 (stereo not given)
Result: false (0)

Query: Next compound: Oc1ccc(F)c(Nc2nc(SCCN3CCOCC3)nc3c2cnn3CC(Cl)c2ccc(Br)cc2)c1 (stereo not given)
Result: false (0)

Query: Next compound: Cc1cc(C(NC(=O)C2CC3(CC(Nc4cccc5c4C(=O)N(C4CCC(=O)NC4=O)C5=O)C3)C2)c2ccc3c(c2)OC(F)(F)O3)c(O)c2ncccc12 (stereo not given)
Result: false (0)

Query: Next compound: C/C(=N\Nc1ccc(C(=O)O)cc1)c1cnn(-c2cc(=O)[nH]c3ccc(C)cc23)c1C
Result: false (0)

Query: Next compound: CC1=C(C(=O)Nc2ccccc2)C(c2ccc3ccccc3c2)n2c(nc3ccccc32)N1 (stereo not given)
Result: false (0)

Query: Next compound: Oc1ccc(Cl)c(Nc2nc(SCCN3CCOCC3)nc3c2cnn3CC(Cl)c2ccc(Br)cc2)c1 (stereo not given)
Result: false (0)

Query: Next compound: CC[C@]12C=CCN3CC[C@@]4(c5ccc(OC)cc5N(C)[C@H]4[C@@](O)(C(=O)OC)[C@@H]1OC(=O)CCCC[P+](c1ccc(F)cc1)(c1ccc(F)cc1)c1ccc(F)cc1)[C@@H]32
Result: false (0)

Query: Next compound: COc1ccc(OC)c(Cn2cc(C#N)c(N)c2C(=O)c2ccc(Br)cc2)c1
Result: false (0)

Query: Next compound: NS(=O)(=O)c1ccc(N2N=C(c3ccc(NC(=O)Nc4ccccc4)cc3)CC2c2ccc(Br)cc2)cc1 (stereo not given)
Result: true (1)

Query: Next compound: Nc1cc(-c2c[nH]c3ccc(F)cc23)nc2cc(-c3c[nH]c4ccccc34)nn12
Result: true (1)

Query: Next compound: Cc1ccc(C2CC(c3ccc(NC(=O)Nc4ccccc4)cc3)=NN2c2ccc(S(C)(=O)=O)cc2)cc1 (stereo not given)
Result: true (1)

Query: Next compound: CS(=O)(=O)Nc1cccc(-n2c(COc3ccc(OC(F)(F)F)cc3)nc3ccccc32)c1
Result: false (0)

Query: Next compound: Cc1oc(-c2ccccc2)nc1CN[C@@H]1C[C@@H]2C[C@H]([C@H]1C)C2(C)C
Result: false (0)

Query: Next compound: O=C1c2cccc3c(N4CCN(Cc5ccccc5)CC4)ccc(c23)C(=O)N1c1cccc(-c2nn(-c3ccccc3)cc2-c2nc3ccccc3s2)c1
Result: false (0)

Query: Next compound: CN(C)c1ccc(/C=C/c2n(Cc3ccc4ccccc4c3)c3ccccc3[n+]2Cc2ccc3ccccc3c2)cc1
Result: true (1)

Query: Next compound: O=C(N/N=C/c1ccoc1)c1[nH]c2ccc(Br)cc2c1-c1ccccc1
Result: true (1)

Query: Next compound: COc1ccc(NC(=O)N/N=C/c2c[nH]c3ccccc23)cc1
Result: false (0)

Query: Next compound: Cc1cc(C(NC(=O)CCCCCNc2cccc3c2C(=O)N(C2CCC(=O)CC2=O)C3=O)c2cccc(N(C)C)c2)c(O)c2ncccc12 (stereo not given)
Result: false (0)

Query: Next compound: C=CCSc1nnc(-c2ccc(-c3nc4ccc(Cl)cc4[nH]3)cc2)o1
Result: false (0)

Query: Next compound: COc1cc(C2CC(c3cc(OC)c(OC)c(OC)c3)=Nc3c(N)nc(N)nc3N2)ccc1Oc1nc(Nc2ccc(F)cc2)nc(N(C)C)n1 (stereo not given)
Result: false (0)

Query: Next compound: COc1ccc(-c2cc(-c3cc(C(C)C)c(O)cc3C)nn2-c2ccc(S(N)(=O)=O)cc2)cc1
Result: false (0)

Query: Next compound: COc1ccc(N=Nc2c(N)nn3c(N)c(C#N)c(-c4ccccc4)nc23)cc1
Result: false (0)

Query: Next compound: Clc1ccc(-c2nc3c4c(-c5ccccc5)c(-c5ccccc5)n(Cc5ccccc5)c4ncn3n2)cc1
Result: false (0)

Query: Next compound: C=CCSc1nnc(-c2ccc(-c3nc4ccccc4[nH]3)cc2)o1
Result: false (0)

Query: Next compound: CN1C(=O)/C(=C/c2ccco2)S/C1=N/c1nccs1
Result: false (0)

Query: Next compound: COc1cc(/C=C/C(=O)c2cnn(-c3cc(=O)[nH]c4ccc(C)cc34)c2C)cc(OC)c1OC
Result: true (1)

Query: Next compound: O=C(CSc1nnc(-c2ccc(-c3nc4ccccc4[nH]3)cc2)o1)Nc1ccc(Br)cc1
Result: false (0)

Query: Next compound: Cc1ccc(C(C(=O)NC2CCCCC2)N(Cc2ccccc2Cl)C(=O)c2ccc(CN3CCOCC3)o2)o1 (stereo not given)
Result: false (0)

Query: Next compound: COc1ccccc1/C=C/c1cccc(NC(=S)NCCCCN(C)C)c1
Result: true (1)

Query: Next compound: O=C(Cn1c(-c2ccccc2)nc2ccccc21)N=Nc1c(O)[nH]c2ccc(Br)cc12
Result: true (1)

Query: Next compound: O=C(CSc1nnc(-c2ccc(-c3nc4ccccc4[nH]3)cc2)o1)Nc1ccccc1
Result: false (0)

Query: Next compound: c1ccc(CSc2nnc(-c3ccc4nc(-c5ccccc5)[nH]c4c3)o2)cc1
Result: false (0)

Query: Next compound: Cc1ccc(C(=O)Nc2ccc(-n3ccnc3)c(C(F)(F)F)c2)cc1C#Cc1cnc2cccnn12
Result: false (0)

Query: Next compound: COc1ccc2ccccc2c1/C=C1\SC(=Nc2ccc(O)cc2)NC1=O
Result: false (0)
